# Test system: NCI-H226 lung
# assayInfo: NCI tumour cell line growth inhibition, 48 h
Entries and their TGI
measure: TGI

> print(dat)
                                    molecule  measure    result
 1  Cc1ccc(S(=O)(=O)N=Nc2c(O)[nH]c3c(Cl)cc(Cl)cc23)cc1      TGI  > 100 µM
 2  Cc1ccc(NC(=O)Cn2c(Br)nc3c2c(=O)n(C)c(=O)n3C)cc1      TGI   4.76 µM
 3  N#C[C@@H]1C(n2ccc(N)nc2=O)O[C@H](CO)[C@H]1O (stereo partly specified)      TGI  > 100 µM
 4              CC(=Nc1ccncc1)C(C)=Nc1ccncc1      TGI  > 100 µM
 5  COc1ccc2nc3cc(Cl)ccc3c(NCCNCCCNC(=O)c3cc(-c4ccccc4)nc4ccccc34)c2c1      TGI  > 100 µM
 6                       c1nnc(NCNc2nncs2)s1      TGI  > 100 µM
 7  CCN(CC)C1CC(n2cc(C)c(=O)[nH]c2=O)OC1CO (stereo unspecified)      TGI  > 100 µM
 8  Cc1ccc(S(=O)(=O)c2c(O)c3ccccc3n(C)c2=O)cc1      TGI  > 100 µM
 9                     O=C1CCCN1CC#CCN1CCCC1      TGI  > 100 µM
10  CCCCCCN(CCCCCC)CC(O)c1ccc2c3c(cccc13)CC2 (stereo unspecified)      TGI   22.9 µM
11  COc1ccc2c(c1)[n+]([O-])c(/C(C)=N/NC(=O)CC#N)c[n+]2[O-]      TGI  > 100 µM

---

Entries and their TGI
# Tested on: SK-OV-3 ovarian
# assayInfo: NCI tumour cell line growth inhibition, 48 h

molecule	TGI
O=C1Nc2cccc3cc(NCC(O)CCl)cc1c23 (stereo not given)	> 100 µM
COc1ccc(CN2c3ccccc3CCc3ccccc32)cc1F	> 100 µM
C=C=C(C(=O)OC)S(=O)c1ccc([N+](=O)[O-])cc1[N+](=O)[O-] (stereo not given)	> 100 µM
CC1CCN(CC(=O)N2c3ccccc3Sc3cc4ccccc4cc32)CC1	> 100 µM
Cc1ccc(S(=O)(=O)N=Nc2c(O)[nH]c3c(Cl)cc(Cl)cc23)cc1	> 100 µM
CCc1ccc2c(c1)CC1(C2)Cc2cc3c(cc2C1)C(=O)CC3 (stereo not given)	> 100 µM
CSc1ccc(/C=C2\C=C(CC(=O)NCc3ccc(C(=O)c4ccccc4)cc3)c3cc(F)ccc32)cc1	0.704 µM
CC(=O)Nc1ccc(S(=O)(=O)NNC(=O)c2cccnc2Nc2ccc(Cl)cc2)cc1	> 100 µM
O=c1[nH]c(N/N=C\C(O)C(O)C(O)CO)nc2ccccc12 (stereo not given)	> 100 µM
C=C(C=O)CCCC(C)[C@@H]1CCC23CC12CCC1[C@@]2(C)CCC(OC(C)=O)C(C)(C)C2CC(OC2OC(COC(C)=O)C(O)C(O)C2O)[C@]13C (stereo not given in full)	12 µM

---

# Tested on: HT29 colon
# assayInfo: NCI tumour cell line growth inhibition, 48 h; in the data active = GI50 below about 0.43 µM; inactive = the rest
Possible outcomes: active, inactive

> print(dat)
                                    compound  category
 1  COc1ccc(-c2cn[nH]c2-c2cc(OC)c3c(c2)OCCO3)cc1    active
 2  CCN(CC)CCCC(C)Nc1c2ccc(C)cc2nc2ccc(OC)cc12 (stereo unspecified)    active
 3       C/C(=N\NC(N)=S)c1nc2ccc(Cl)cc2[nH]1  inactive
 4  COc1ccc2c(c1)/c(=C/c1ccc(N(C)C)cc1)c1cc(-c3ccccc3)[n+](C)n12    active
 5  COc1ccc(C2CC(n3nnnc3-c3ccccc3)=NN2)cc1 (stereo unspecified)  inactive
 6        O=[N+]([O-])c1ccc2c(c1)[O][Sn][O]2  inactive
 7    COc1cc(Cn2c(-c3nonc3N)nc3ccccc32)ccc1C    active
 8  COc1cc(S(=O)(=O)Nc2ccc(C3=NNC(c4ccccc4)C3)cc2)ccc1F (stereo unspecified)  inactive
 9  CCC(c1cccc(O)c1)C(CC)c1cccc(O)c1 (stereo unspecified)  inactive
10  Cc1cc(N/N=C/c2nc(-c3ccc(Cl)cc3)oc2C)c2cc(Cl)ccc2n1  inactive
11  CN(C)C(=O)O[C@@H]1CN[C@@H](C#Cc2cc3ncnc(Nc4ccc(OCc5cccc(F)c5)c(Cl)c4)c3s2)C1  inactive

---

# Test system: HS 578T breast
# assayInfo: NCI tumour cell line growth inhibition, 48 h

compound	TGI
CC(=O)O[C@H]1C(=O)[C@@]2(C)[C@H]([C@H](OC(=O)c3ccccc3)[C@]3(O)C[C@H](OC(=O)[C@H](O)[C@@H](NC(=O)CC(C)(C)C)c4ccccc4)C(C)=C1C3(C)C)C1(OC(C)=O)CO[C@@H]1C[C@@H]2O (stereo partly drawn)	0.00653 µM
C=CC[C@@]1(C(=O)OC)[C@H](Sc2ccccc2)C1(C)C	> 100 µM
Oc1ccc(CCc2cc(O)cc(O)c2)cc1	> 100 µM

---

# System: OVCAR-8 ovarian
# assayInfo: NCI tumour cell line growth inhibition, 48 h
Entries and their TGI
measure: TGI

> print(dat)
                                   compound  measure       result
1  FCc1ncc(-c2ccc(C(F)(F)F)cc2)c(NC2CCCCCC2)n1      TGI      > 10 µM
2  O=c1[nH]c(N/N=C\C(O)C(O)C(O)CO)nc2ccccc12 (stereo unspecified)      TGI     > 100 µM
3  CC1(Cl)CC2C(CC1Sc1nnnn1-c1ccccc1)C2(C)C (stereo unspecified)      TGI     > 100 µM
4  COc1cc2nc(-c3ccc(C(F)(F)F)cc3)cc(OCCCN3CCCCC3)c2cc1OC      TGI      20.4 µM
5  COC(=O)c1c(-c2ccccc2)sc(-c2cccc3ccccc23)c1C(=O)OC      TGI     > 100 µM
6        O=[N+]([O-])c1ccc2c(c1)[O][Sn][O]2      TGI  > 150 µg/mL

---

# Test system: SNB-78 CNS
# assayInfo: NCI tumour cell line growth inhibition, 48 h
Entries and their TGI

compound	inequalityOperator	TGI / µM
Cc1cc2c(=O)c3ccccc3[nH]c2c(C(=O)O)c1C	>	100
Cc1c(Cl)cccc1NC(=O)CC1C(=O)Nc2ccccc2S1(=O)=O (stereo not given)	=	45.5
CCOC(=O)COS(=O)(=O)C(F)(F)F	>	100
C=C(C=O)CCCC(C)[C@@H]1CCC23CC12CCC1[C@@]2(C)CCC(OC(C)=O)C(C)(C)C2CC(OC2OC(COC(C)=O)C(O)C(O)C2O)[C@]13C (stereo not given in full)	=	3.4
C#CCn1c(=O)c(C#N)c(O)c2cc3ccccc3nc21	>	100

---

# Tested on: CAKI-1 renal
# assayInfo: NCI tumour cell line growth inhibition, 48 h
Entries and their TGI

molecule	TGI
O=[N+]([O-])c1nccn1COCCBr	> 100 µM
Nc1ccc(S(=O)(=O)NCc2nccs2)cc1	84.6 µM
CC(C)(C)NC(=O)[C@H]1C[C@H]2CCCC[C@H]2CN1C[C@@H](O)[C@H](Cc1ccccc1)NC(=O)[C@H](CC(N)=O)NC(=O)c1ccc2ccccc2n1	33.1 µM
c1ccc2c(c1)nc1n2CCSC1	> 100 µM
COc1cc2c(/C=C3/C(=O)N(c4ccccc4)c4ccccc43)c(Cl)[nH]c2cc1C	> 59.5 µM
C=C=C(C(=O)OC)S(=O)c1ccc([N+](=O)[O-])cc1[N+](=O)[O-] (stereo unspecified)	63.1 µM
OC12CC/C(=N/OCc3ccccc3)CC1c1ccccc12 (stereo unspecified)	> 100 µM
c1ccc2c(Cc3nnc4sc(SSc5nn6c(Cc7c[nH]c8ccccc78)nnc6s5)nn34)c[nH]c2c1	62.6 µM
COc1cc(Br)c(C=Nc2cccc3ccc(OS(=O)(=O)c4cccc([N+](=O)[O-])c4)cc23)cc1OC	> 100 µM
CCO/C(O)=C(/C(=N)N1CCCC1)C(=O)Nc1cccc(C(F)(F)F)c1	> 100 µM
C/C(O)=C/c1nc2ccc([N+](=O)[O-])cc2nc1/C=C(/C)O	> 100 µM
NCCCCNCCCNC(=O)c1nc(-c2csc(CCN)n2)sc1Cl	> 100 µM
CNC(=S)N/N=C/c1ccc([N+](=O)[O-])s1	> 10 µM
S=c1nc(-c2cccnc2)[nH][nH]1	> 1 µM
COc1cc(S(=O)(=O)Nc2ccc(C3=NNC(c4ccccc4)C3)cc2)ccc1F (stereo unspecified)	> 100 µM
CSc1c(C#N)c2n(c3ccccc13)c1ccccc1[n+]2C	84.3 µM
Cc1c(NC2(C)C(=O)N(/N=C/c3ccccc3)N=C2c2ccccc2)n[nH]c1-c1ccccc1 (stereo unspecified)	> 100 µM
Fc1cccc(Cl)c1/C=N\N=C1c2ccccc2-c2ccccc21	> 100 µM
Cn1cnc2c(sc3nc4ccccc4n32)c1=N	> 100 µM
O=C(NCc1ccc(Cl)cc1)c1cc2sccc2nc1C(F)(F)F	> 100 µM
COC(=O)C1=C(CS(=O)c2ccccc2[N+](=O)[O-])ON(C)C1c1ccccc1 (stereo unspecified)	> 100 µM
CC(=O)O[C@H]1C(=O)[C@@]2(C)[C@H]([C@H](OC(=O)c3ccccc3)[C@]3(O)C[C@H](OC(=O)[C@H](O)[C@@H](NC(=O)CC(C)(C)C)c4ccccc4)C(C)=C1C3(C)C)C1(OC(C)=O)CO[C@@H]1C[C@@H]2O (stereo partly specified)	> 10 µM
COc1ccc(C(=O)N2c3ccccc3Sc3ccccc32)c(C(F)(F)F)c1	> 100 µM
O=Cc1ccc(-c2cccs2)s1	49.7 µM
O=C1CC(=O)OC(c2ccc([N+](=O)[O-])cc2)O1	3.24 µM
COC(=O)c1nc(N)[nH]c(=O)c1CCCCCc1c(C(=O)OC)nc(N)[nH]c1=O	> 50 µM
COC(=O)[C@@H]1C[C@@]2(C3C=CN(C(=O)C(F)(F)F)C=C3)c3ccccc3N(C(=O)C(F)(F)F)[C@H]2N1C(=O)OC	> 100 µM
CN[C@@H]1C[C@H]2O[C@@](C)([C@@H]1OC)n1c3ccccc3c3c4c(c5c6ccccc6n2c5c31)C(=O)N[C@@H]4O	0.0229 µM
CC(C)[C@H]1C(=O)N[C@@H](CCCN=C(N)N)C(=O)NCC(=O)N[C@@H](CC(=O)O)C(=O)N[C@H](Cc2ccccc2)C(=O)N1C	> 100 µM
C=C(C)C1CC=C(C)C2(C1)OCC(C)(C)C(C)O2 (stereo unspecified)	36.7 µM
O=C1C2Cc3ccccc3CN2C(=O)N1CCN1CCCC1 (stereo unspecified)	> 100 µM
CCN(CC)C1CC(n2cc(C)c(=O)[nH]c2=O)OC1CO (stereo unspecified)	> 100 µM
NC(=O)c1ccc(C2C3=C(CCCC3=O)OC3=C2C(=O)c2ccccc2C3=O)cc1 (stereo unspecified)	3.67 µM
CC(C)Oc1cc(O)c2c(c1)OCC=C2CCC(=O)O	> 100 µM
O=C1NC2(CN3CCC2CC3)C(=O)N1CN(Cc1ccccc1)c1ccccc1 (stereo unspecified)	> 100 µM
CCOC(=O)CC1NC(=O)CS1 (stereo unspecified)	> 100 µM
CC(C)OP(=O)(OC(C)C)C(C(C)C)N(C)/C(F)=N/C(F)(F)F (stereo unspecified)	> 100 µM
COc1cccc(-c2cc(=O)c3ccc(C)nc3[nH]2)c1	> 81.8 µM
FCc1ncc(-c2ccc(C(F)(F)F)cc2)c(NC2CCCCCC2)n1	> 10 µM
CN(C)C(=O)O[C@@H]1CN[C@@H](C#Cc2cc3ncnc(Nc4ccc(OCc5cccc(F)c5)c(Cl)c4)c3s2)C1	> 25 µM
N#C[C@@H]1C(n2ccc(N)nc2=O)O[C@H](CO)[C@H]1O (stereo partly specified)	> 100 µM
